# test-protocol: qHTS for small molecule inhibitors of Yes1 kinase: Counter Assay (AID 686950);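 note: no kinase present so only ADP-Glo detection of a fixed ADP amount is tested; luminescence from ADP-Glo reporting ADP in a fixed ATP and ADP mixture; 0% = DMSO wells with ATP plus ADP and -100% = ATP-only wells without ADP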
# measurement-conditions: series mostly up to 76.9 µM
Active and inactive are the calls of the source. Calls come from the whole dose curve; as a rule, active = well fitted curve in the direction sought with a large enough effect; inactive = no such curve, though single readings can be large or run the other way.
observable: outcome

Consider the following illustrative entries.
>>> print(df.to_string())
                           structure_string  observable  observed_measurement
0            CNC(=O)c1cncc(C=Cc2ccccc2Cl)c1     outcome              inactive
1  NS(=O)(=O)c1ccc(N=Nc2c(O)[nH]c3ccc(C(=O)NCc4ccncc4)cc23)cc1     outcome              inactive
2  CCn1c(-c2nonc2N)nc2c(C#CC(C)(C)O)nc(CN3CCCC3)cc21     outcome              inactive
3                CCn1c(-c2nonc2N)nc2ccncc21     outcome              inactive
4  CS(=O)(=O)Nc1ccc(-c2ccc3c(NC(=O)C4CC4)n[nH]c3c2)cc1     outcome              inactive

Pending compound:
## Task In one line, give reported outcome of the entry `Fc1cccc(COc2ccc(Nc3ncncc3C#Cc3ccccc3)cc2Cl)c1` .
## Result inactive

* * *

# experimental-target: Vitamin D3 receptor (Homo sapiens) (UniProt P11473)
# Sequence (P11473 whole entry, looked up): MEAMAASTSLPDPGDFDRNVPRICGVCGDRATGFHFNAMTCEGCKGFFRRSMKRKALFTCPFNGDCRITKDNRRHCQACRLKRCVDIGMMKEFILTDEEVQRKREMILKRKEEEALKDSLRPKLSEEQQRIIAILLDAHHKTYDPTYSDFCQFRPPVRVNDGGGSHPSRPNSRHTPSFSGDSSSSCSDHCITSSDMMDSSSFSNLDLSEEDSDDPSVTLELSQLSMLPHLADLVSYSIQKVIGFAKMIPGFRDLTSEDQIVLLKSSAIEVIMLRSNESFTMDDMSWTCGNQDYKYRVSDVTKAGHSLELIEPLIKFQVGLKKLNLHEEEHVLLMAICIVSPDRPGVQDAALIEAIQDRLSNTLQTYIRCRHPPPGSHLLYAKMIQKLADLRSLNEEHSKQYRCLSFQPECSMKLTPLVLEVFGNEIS
# test-protocol: qHTS for Inhibitors of the vitamin D receptor (VDR): Hit Validation in Primary Screen (AID 602199); note: potency is the fitted concentration of half-maximal effect
# measurement-conditions: VDR-coactivator inhibition assay, qHTS confirmation
The list shows a part of the results. Results filed as inconclusive are left out. Calls of active or inactive are those of the source. Calls come from the whole dose curve; as a rule, active = well fitted inhibition curve with a large enough effect; inconclusive = small, poorly fitted or top-dose-only effect, or another doubt; inactive = no such curve, though single readings can be large or run the other way.
Potency overview

Consider the following illustrative entries.
>>> print(df.to_string())
                                   compound  observable  observed_measurement
0          O=C(/C=C/c1ccc(Cl)cc1Cl)c1cccnc1     Potency      9.47 µM (active)
1         Cc1cc(C)nc(S/C=C/C(=O)c2ccccc2)n1     Potency      3.55 µM (active)
2  CC1CCN(C(=S)c2ccc(-c3ccc(Cl)cc3Cl)o2)CC1     Potency      21.2 µM (active)
3  COc1ccc(CS(=O)/C(Cl)=C(/Cl)C(=O)Nc2ccc(OC)nc2)cc1 (stereo unspecified)     Potency      5.97 µM (active)
4     Cc1nc(-c2ccccc2)sc1C(=O)/C=C/c1ccccc1     Potency      16.8 µM (active)
5  O=C(/C=C/c1ccc(Cl)c([N+](=O)[O-])c1)c1cccnc1     Potency      2.51 µM (active)

## Task In one line, give reported Potency of the entry `CN(C)N=Nc1ccc2nc[nH]c2c1` .
## Result 10.6 µM (active)

## Task In one line, give reported Potency of the entry CCOC(=O)N1CCN(C(c2cccnc2)c2ccc3cccnc3c2O)CC1 (stereo unspecified) .
## Result 7.52 µM (active)

## Task In one line, give reported Potency of the entry `Cc1ccc(O)c(NC(=O)CCS(=O)(=O)c2nc(-c3ccc4c(c3)OCO4)cc(C(F)(F)F)n2)c1` .
## Result 14.1 µM (active)

## Task In one line, give reported Potency of the entry `CCOC(=O)c1sc(NC(=O)CSc2nc(C)cc(C(F)(F)F)n2)c(C#N)c1C` .
## Result 11.9 µM (active)

## Task In one line, give reported Potency of the entry `CCCCS(=O)(=O)c1oc(-c2cccs2)nc1S(=O)(=O)c1ccccc1` .
## Result 2.24 µM (active)

* * *

# Tested on: C2A
# test-protocol: qHTS profiling for inhibitors of Plasmodium falciparum proliferation (AID 504749); note: nearly all actives have a fitted effect of over 60% in size; note: potency is the fitted concentration of half-maximal effect
# measurement-conditions: P. falciparum in erythrocytes, SYBR Green DNA, 72 h; series mostly up to 28.7 µM
Results filed as inconclusive are left out. Active and inactive are the calls of the source. Calls follow the shape of the dose curve; as a rule, active = well fitted inhibition curve with a large enough effect; inconclusive = small, poorly fitted or top-dose-only effect; inactive = flat fitted curve, though single readings scatter. Numbered stars: 1 amine (or outer) side, 2 acyl side, 3 side chain; on linkers, the order of the positions; unused ones are H or OH. Bridge positions count the residues as written; N and C are the ends. Square brackets hold non-standard residues; d marks the D form. Peptide text beside a SMILES is read from it. * marks the point of attachment. ξ: configuration not given here. ΔAla(Z-3-ureido) = NC(=O)N/C=C(\N)C(=O)O; X2 = NC1=NC(O)CC(C(N[*:1])C(=O)[*:2])N1; ξβ3hOrn = NCCCC(N)CC(=O)*; Dap = NC[CH](N)C(=O)O
observable: Potency

Consider the following illustrative entries.
molecule	observed-measurement
O=C(OCC1OC(OC(=O)c2cc(O)c(O)c(OC(=O)c3cc(O)c(O)c(O)c3)c2)[C@@H](OC(=O)c2cc(O)c(O)c(OC(=O)c3cc(O)c(O)c(O)c3)c2)C(OC(=O)c2cc(O)c(O)c(OC(=O)c3cc(O)c(O)c(O)c3)c2)C1OC(=O)c1cc(O)c(O)c(OC(=O)c2cc(O)c(O)c(O)c2)c1)c1cc(O)c(O)c(OC(=O)c2cc(O)c(O)c(O)c2)c1 (stereo not given in full)	2.82 µM (active)
CC(C)CC(NC(=O)C(COC(C)(C)C)NC(=O)C(Cc1ccc(O)cc1)NC(=O)C(CO)NC(=O)C(Cc1c[nH]c2ccccc12)NC(=O)C(Cc1cnc[nH]1)NC(=O)C1CCC(=O)N1)C(=O)NC(CCCN=C(N)N)C(=O)N1CCCC1C(=O)NNC(N)=O (stereo not given)	inactive
NCCCC(N)CC(=O)NC1CNC(=O)C(C2CC(O)N=C(N)N2)NC(=O)/C(=C/NC(N)=O)NC(=O)C(CO)NC(=O)C(CO)NC1=O (stereo not drawn) (ξβ3hOrn-[Dap]SS[ΔAla(Z-3-ureido)][X2]; lactam 1-C; configuration not given here)	inactive
CCC(Oc1ccccc1)C(=O)NC1C(=O)N2C1SC(C)(C)C2C(=O)O (stereo not given)	inactive

Pending molecule:
## Task In one line, give reported Potency of the entry `O=C1/C(=C\c2cccs2)CCC/C1=C/c1cccs1` .
## Result inactive

* * *

max response overview
# test-protocol: qHTS assay for small molecule agonists of retinoid X receptor alpha signaling (AID 588544)
# measurement-conditions: HEK293T RXRa-UAS-bla, beta-lactamase reporter, 18 h; 530 nm emission
Inconclusive results are not listed.
The response must be a number in % with no trailing unit.

Consider the following illustrative entries.
                               compound  observed_measurement
0                CC(=O)CC(=O)Nc1ccccc1C                  16.5
1               Nc1nc(N)nc(-c2ccccc2)n1                  -9.5
2      Cn1c(=O)[nH]c(=O)n(C2CCCCC2)c1=O                 -3.38
3  CCCCOCC(C)OCC(C)O (stereo not drawn)                 -14.7

## Task In one line, give reported max response of the entry `C=C(C)C(=O)OCCC[Si](OC)(OC)OC` .
## Result -14.5

## Task In one line, give reported max response of the entry `CC(C)CCCCCCCCCCCCCCC(=O)O` .
## Result -6.99

## Task In one line, give reported max response of the entry `CCCCOCCOCCO` .
## Result -10.9

## Task In one line, give reported max response of the entry CCCCCCC(O)CCCCCCCCCCC(=O)O (stereo not drawn) .
## Result -2.57

## Task In one line, give reported max response of the entry `Cl[Si](Cl)(c1ccccc1)c1ccccc1` .
## Result -17.4

## Task In one line, give reported max response of the entry `O=C1CCCCCCCCCCC1` .
## Result -19.7

## Task In one line, give reported max response of the entry `CCC(=O)OCCc1ccccc1` .
## Result -7.14

## Task In one line, give reported max response of the entry CCC(C)OC(=O)N1CCCCC1CCO (stereo not drawn) .
## Result -14.7

## Task In one line, give reported max response of the entry `CN(C)Cc1cc(CN(C)C)c(O)c(CN(C)C)c1` .
## Result -13.7

## Task In one line, give reported max response of the entry `Cc1ccc(C(C)(C)C)c(O)c1` .
## Result -12.1

* * *

# test-protocol: qHTS for Inhibitors of Plasmodium falciparum (CP250) proliferation (AID 504320)
# measurement-conditions: P. falciparum CP250 in erythrocytes, SYBR Green DNA, 72 h; series mostly up to 6.7 µM
Inconclusive results are not listed. The source made the active and inactive calls. Calls come from the whole dose curve; as a rule, active = well fitted inhibition curve with a large enough effect; inconclusive = small, poorly fitted or top-dose-only effect, or effect the other way; inactive = flat fitted curve, though single readings scatter.
Mark one answer only. Choices: active, inactive

>>> print(df.to_string())
                                   compound  assigned_category
0  CCN1C(=O)N(C)[C@@H](c2ccccc2)C(C(=O)OC)=C1C           inactive
1  CC(=O)C1=C(C)N(Cc2ccccc2)C(=O)N[C@H]1c1ccco1           inactive
2  CC#CCN1c2ccccc2[C@]23C[C@@H](C(=O)OC)N(S(=O)(=O)c4ccc(C#N)cc4)C2=NC(C(=O)OC)=C(C(=O)OC)[C@H]13           inactive
3  CCCCC1=CC2=CC(=O)C(C)(OC(=O)CC)C(=O)C2=CN1c1ccccc1 (stereo not drawn)           inactive

## Task What is the recorded call for this compound in the test? `COc1ccc(O[C@H]2C=C[C@@H](c3ccccc3)O[C@H]2COC(=O)CCC(C)=NO[C@H](C)c2cn([C@H](CO)Cc3ccccc3)nn2)cc1`
## Result inactive

## Task What is the recorded call for this compound in the test? CCN(CC)CCCN1C=C2C(=O)C(C)(OC(=O)CCC(=O)OC)C(=O)C(Br)=C2C=C1c1ccc(OC)cc1 (stereo not drawn)
## Result inactive

## Task What is the recorded call for this compound in the test? `CCN1C(=O)[C@@H]2[C@H]3[C@H](O)[C@H](O)CC(=NO[C@@H](C)c4cc(-c5c(C)cc(C)cc5C)no4)[C@@H]3CC[C@H]2C1=O`
## Result inactive

## Task What is the recorded call for this compound in the test? `CCOC(=O)CN1C(=O)N[C@@H](c2cccc(C(F)(F)F)c2)C(C(=O)OC)=C1C`
## Result inactive

## Task What is the recorded call for this compound in the test? `CCCCc1nc2c(c3c1C[C@H](C)OC3)CN(C(=O)NCCc1c[nH]c3ccccc13)CC2`
## Result inactive

## Task What is the recorded call for this compound in the test? `COc1ccc2c(c1)O[C@@H](c1cccc(C(F)(F)F)c1)[C@H](OC(=O)N[C@H]1CCCc3ccccc31)C2=O`
## Result inactive

## Task What is the recorded call for this compound in the test? `CC#CCN1c2ccccc2[C@]23C[C@@H](C(=O)OC)N(C(=O)OCC)C2=NC(C(=O)OC)=C(C(=O)OC)[C@H]13`
## Result inactive

## Task What is the recorded call for this compound in the test? `COC(=O)C1=C(C(=O)OC)[C@@H]2N(Cc3ccccc3)c3ccccc3[C@@]23C[C@@H](C(=O)OC)N(S(=O)(=O)c2ccc(Br)cc2)C3=N1`
## Result active

Cited source for all entries: PubChem BioAssay (NCATS)
